# Protocol details: Inhibition of bacterial beta lactamase NDM-1
# Parameters: species or system Bacteria
Exercise: for every item that follows, state its recorded IC50.

Name the recorded IC50 of the compound listed here: O=C(O)c1cccc2cc(B(O)O)sc12 20.2 to 27.7 µM

Name the recorded IC50 of the compound listed here: CC(C)(C)OC(=O)c1cccc2cc(B(O)O)sc12 20.2 to 27.7 µM

* * *

# Protocol details: Inhibition of bacterial beta lactamase CTX-M-15 after 5 mins
# Parameters: species or system Bacteria
pIC50: −log10 of the molar value.
Observable: pIC50

Name the recorded pIC50 of the molecule listed here: Cc1c(Oc2nc(N)ns2)cc2c(c1C)[C@@H](CC(=O)O)OB2O 5.41 to 8.30

* * *

# Protocol details: Inhibition of bacterial beta lactamase OXA-10 after 5 mins
# Set-up: species or system Bacteria
Observable: IC50

Name the recorded IC50 of the compound listed here: Cc1c(Oc2nc(N)ns2)cc2c(c1C)[C@@H](CC(=O)O)OB2O 0.005 to 3.9 µM

* * *

# System: HCT-116
# Protocol details: Antiproliferative activity against human HCT116 cells by MTT assay
# Assay type: functional, cell-based
pIC50: −log10 of the molar value.
Observable: pIC50

Name the recorded pIC50 of the compound listed here: O=C(/C=C/c1ccc2c(c1)B(O)OC2)c1ccc(F)cc1 5.55 to 5.85

* * *

# Protocol details: Inhibition of bacterial beta lactamase OXA-24
# Parameters: species or system Bacteria
Observable: pIC50
// pIC50 is dimensionless: -log10 of concentration (M)

Name the recorded pIC50 of the molecule listed here: O=C(O)c1cccc2cc(B(O)O)sc12 4.64

* * *

# Test system: Trypanosoma brucei brucei
# Protocol details: Anti-parasitic activity against trypomastigote form of Trypanosoma brucei brucei 427 after 24 hrs by resazurin dye-based assay
# Type: functional, organism-based
# Setup conditions: Trypanosoma brucei, 427, 24 h
Observable: pIC50
// pIC50 is dimensionless: -log10 of concentration (M)

Quote Trypanosoma brucei brucei pIC50 for entry O=C(/C=C/c1ccc2c(c1)OCO2)Nc1ccc2c(c1)B(O)OC2 . 7.07

* * *

# Test system: Hep 3B2
# Protocol details: Antiproliferative activity against human Hep3B cells by MTT assay
# Assay type: functional, cell-based
Observable: IC50 (µM)
The response must be a number in µM with no trailing unit.

Name the recorded IC50 of the compound listed here: Cc1cnn(B(n2cc(C)cn2)n2cc(C)cn2)c1 15.2

* * *

# Target: Proteasome Macropain subunit MB1 (Homo sapiens, UniProt P28074)
# Sequence (P28074 whole entry): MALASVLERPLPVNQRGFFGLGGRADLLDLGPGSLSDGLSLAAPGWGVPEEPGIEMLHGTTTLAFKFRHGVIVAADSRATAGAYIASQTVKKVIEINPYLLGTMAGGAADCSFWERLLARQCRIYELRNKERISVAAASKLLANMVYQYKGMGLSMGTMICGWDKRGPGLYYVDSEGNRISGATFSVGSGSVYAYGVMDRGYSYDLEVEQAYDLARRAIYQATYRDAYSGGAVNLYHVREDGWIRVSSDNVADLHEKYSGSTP
# Protocol details: Inhibition of human chymotrypsin-like activity of 20S proteasome (unknown origin)
Observable: pIC50
// pIC50 is dimensionless: -log10 of concentration (M)

Name the recorded pIC50 of the compound listed here: CSC[C@H](NC(=O)c1cc(Cl)ccc1Cl)C(=O)N[C@@H](CC(C)C)B1OCCNCCO1 8.34

* * *

# Tested on: Plasmodium falciparum
# Protocol details: Antimalarial activity against Plasmodium falciparum HB3 after 48 hrs by [3H]-hypoxanthine incorporation assay
# Assay type: functional, organism-based
Observable: IC50

Name the recorded IC50 of the compound listed here: O=C(O)CCc1cccc2c1B(O)OC2 32 nM

* * *

# Protocol details: Inhibition of bacterial beta lactamase OXA-48 after 5 mins
# Design: species or system Bacteria
pIC50: −log10 of the molar value.
Observable: pIC50

Name the recorded pIC50 of the compound listed here: Cc1c(Oc2nc(N)ns2)cc2c(c1C)[C@@H](CC(=O)O)OB2O 5.41 to 8.30

* * *

# Protocol details: Inhibition of Pseudomonas aeruginosa beta lactamase AmpC after 5 mins
Observable: IC50

Name the recorded IC50 of the compound listed here: Cc1c(Oc2nc(N)ns2)cc2c(c1C)[C@@H](CC(=O)O)OB2O 5 to 3900 nM

* * *

# Target: Proteasome Macropain subunit MB1 (Homo sapiens, UniProt P28074)
# Protocol details: Inhibition of human chymotrypsin-like activity of 20S proteasome (unknown origin)
Observable: pKi
// pKi is dimensionless: -log10 of concentration (M)

Name the recorded pKi of the molecule listed here: CCc1cccc(Nc2ccn(CCC(=O)N[C@@H](CC(C)C)B(O)O)c(=O)c2)c1 7.77

* * *

# Protocol details: Inhibition of bacterial beta lactamase CTX-M-9
# Set-up: species or system Bacteria
Observable: Ki

Name the recorded Ki of the molecule listed here: O=C(O)/C=C/c1c(B(O)O)sc2ccccc12 40 to 90 nM

* * *

# Protocol details: Inhibition of bacterial beta lactamase AmpC
# Set-up: species or system Bacteria
pKi: −log10 of the molar value.
Observable: pKi

Name the recorded pKi of the molecule listed here: O=C(O)/C=C/c1c(B(O)O)sc2ccccc12 7.05 to 7.40

* * *

# Protocol details: Inhibition of bacterial beta lactamase KPC-2 after 5 mins
# Parameters: species or system Bacteria
Observable: IC50

Name the recorded IC50 of the compound listed here: Cc1c(Oc2nc(N)ns2)cc2c(c1C)[C@@H](CC(=O)O)OB2O 5 to 3900 nM

* * *

# Protocol details: Inhibition of bacterial beta lactamase AmpC
# Parameters: species or system Bacteria
Observable: IC50 (nM)
The response must be a number in nM with no trailing unit.

Name the recorded IC50 of the compound listed here: NCc1ccc2sc(B(O)O)cc2c1 400
